// reported logP for each item listed
The answer should be a number; do not append a unit.

# logP lookup, item N[C@@H](Cc1ccc(O)c(O)c1)C(=O)OC1CCOC1 (stereo partly specified)
-0.45

----------
// reported logP for each item listed

In [3]: df
Out[3]:
                        compound  result
0  CCOC(=O)[C@@H](N)Cc1ccc(O)cc1     0.6

# logP lookup, item `COC(=O)[C@@H](N)Cc1ccc(O)c(O)c1`
-0.28

----------
// reported logP for each item listed
The answer should be a number; do not append a unit.

Example entries and their recorded answers appear below.
                                   molecule  measured_parameter  recorded_number
0       CC(C)OC(=O)[C@@H](N)Cc1ccc(O)c(O)c1                logP             0.52
1  CCC(C)OC(=O)[C@@H](N)Cc1ccc(O)c(O)c1 (stereo not given in full)                logP             0.93
2  CCC(C)OC(=O)[C@@H](N)Cc1ccc(O)cc1 (stereo not given in full)                logP             1.59
3  CC(C)(C)OC(=O)N[C@@H](Cc1ccc(O)c(O)c1)C(=O)O                logP            -1.86

The record that follows has no logP shown yet.
# logP lookup, item `N[C@@H](Cc1ccc(O)cc1)C(=O)Oc1ccc([N+](=O)[O-])cc1`
1.62

The measured values listed here are drawn from the SangsterLogP compilation.
